These measurements were taken from patent US20220380371A1.

- target-of-assay: wild type MLL1 four-member complex (MLL1-4C) (Homo sapiens)
- assay: MLL1 LC-MS Assay
- Assay type: biochemical
- experimental-context: read-out: MLL1 LCMS
- Protocol: The compounds of the present disclosure were serially and separately diluted 3-fold in DMSO to obtain a total of eight or twelve concentrations. Then the test compounds at each concentration (120 nL of each) were transferred by Mosquito into white Proxiplate plus 384-well microplate (PerkinElmer). […] The SAH production from the enzymatic assays were monitored by LC-MS/MS on an API 4000 triple quadrupole mass spec with Turbolon Spray (Applied Biosystem) coupled with Prominenece UFLC (Shimazu). […]
readout: IC50

Here's what some known entries look like.
Nc1ncnc2c1ncn2Cc1c(N2CC[C@@](N)(C(=O)NC3CC3)C2)ccc2ccccc12
50 to 100 nM
C=Cc1c(Cl)ccc(N2CC[C@](N)(C(=O)NC3CC3)C2)c1Cn1cnc2c(N)ncnc21
< 50 nM
Nc1ncnc2c1ncn2Cc1c(N2CC[C@](N)(C(=O)NC3CC3)C2)ccc(OC(F)(F)F)c1Br
< 50 nM
Nc1ncnc2c1ncn2Cc1c(-c2cccc3c2CCCC3)cc(Cl)cc1N1CC[C@](N)(C(=O)NC2CC2)C1
< 50 nM
NC(=O)[C@@]1(N)CCN(c2cc(Cl)cc(Br)c2Cn2cnc3c(N)ncnc32)C1
< 50 nM
Nc1ncnc2c1ncn2Cc1c(N2CC[C@](N)(C(=O)NC3CC3)C2)ccc(Cl)c1Cl
< 50 nM
Nc1ncnc2c1ncn2Cc1c(Br)ccc(Cl)c1N1CC[C@@](N)(C(=O)O)C1
< 50 nM
Nc1ncnc2c1ncn2Cc1c(N2CC[C@](N)(C(=O)NC3CC3)C2)ccc(F)c1C1CCCC1
< 50 nM
Nc1ncnc2c1ncn2Cc1c(N2CCC(N)(C(=O)NC3CC3)C2)ccc(C(F)(F)F)c1Cl (stereo not shown)
50 to 100 nM
CCc1ccc(Cl)c(N2CC[C@](N)(C(=O)NC3CC3)C2)c1Cn1cnc2c(N)ncnc21
< 50 nM

Task: Request body: readout IC50, system wild type MLL1 four-member complex (MLL1-4C) (Homo sapiens), query CCOC(=O)[C@@]1(N)CCN(c2cc(Cl)cc(Br)c2Cn2cnc3c(N)ncnc32)C1 . Return the value.
Result: 50 to 100 nM

Task: Lab note: need IC50 for Nc1ncnc2c1ncn2Cc1c(Br)c(Cl)cc(Cl)c1N1CC[C@](N)(C(=O)NC2CC2)C1 on wild type MLL1 four-member complex (MLL1-4C) (Homo sapiens), anyone have it?
Result: < 50 nM

====

- target-of-assay: wild type MLL1 five-member complex (MLL1-5C) (Homo sapiens, UniProt Q03164)
- assay: MLL1 Flashplate Assay
- experimental-context: read-out: MLL1 flash plate
- Experimental: MLL1 Flashplate Assay To assess the compound potency in MLL1 Flashplate assay, compounds were serially diluted 3-fold in DMSO to obtain a total of twelve concentrations. Then the test compounds at each concentration (250 nL of each) were transferred by Mosquito into Corning #3675 384-well plate. Solutions (15 μL) of 4.2 nM wild type MLL1 five-member complex (MLL1-5C) in the assay buffer (20 mM Tris-HCl, pH 8.0, 0.01% Tween 20, 1 mM DTT, 0.01% BSA) were added to the wells. […]
pIC50: −log10 of the molar value.
readout: pIC50

Past entries and their recorded results:
Nc1ncnc2c1ncn2Cc1c(N2CC[C@](N)(C(=O)NC3CC3)C2)cc(Cl)c(F)c1CN1CCOCC1 [Example 102]
> 7.22
CCc1cc(Cl)cc(N2CC[C@](N)(C(=O)NC3CC3)C2)c1Cn1cnc2c(N)ncnc21 [Example 2]
> 7.22
CCc1cc(-c2cnn(C)c2)cc(N2CC[C@](N)(C(=O)NC3CC3)C2)c1Cn1cnc2c(N)ncnc21 [Example 96]
> 7.22
Nc1ncnc2c1ncn2Cc1c(Br)cc2c(c1N1CCC(N)(C(=O)NC3CC3)C1)OCO2 (centres unmarked) [Example 31]
> 7.22
Nc1ncnc2c1ncn2Cc1c(N2CC[C@](N)(C(=O)Nc3cc(C4CC4)n[nH]3)C2)ccc(F)c1C(F)(F)F [Example 123]
> 7.22
Nc1ncnc2c1ncn2Cc1c(Br)cc(Cl)cc1N1CC[C@](N)(CO)C1 (stereo in doubt) [Example 107]
< 7.00

Task: Returns the measured pIC50 for the input compound. Input: Nc1ncnc2c1ncn2Cc1c(-c2cccc3c2CCCC3)cc(Cl)cc1N1CC[C@](N)(C(=O)NC2CC2)C1 [Example 150]
Result: > 7.22

====

- target-of-assay: wild type MLL1 four-member complex (MLL1-4C) (Homo sapiens)
- assay: MLL1 LC-MS Assay
- Assay type: biochemical
- experimental-context: read-out: LCMS
Attribute: IC50

The examples below pair each entry with its known result.
Nc1ncnc2c1ncn2Cc1c(-c2cccc(C3CCCCC3)c2)cc(Cl)cc1N1CC[C@](N)(c2nn[nH]n2)C1 [Example 84]
50 to 100 nM
Nc1ncnc2c1ncn2Cc1c(Br)cc2c(c1N1CCC(N)(C(=O)NC3CC3)C1)CCO2 (stereo not shown) [Example 115]
50 to 100 nM
Nc1ncnc2c1ncn2Cc1c(N2CC[C@](N)(C(=O)NC3CC3)C2)ccc(F)c1C(F)(F)F [Example 116]
< 50 nM

# evaluate next
Task: Quick check: IC50 of Nc1ncnc2c1ncn2Cc1c(N2CC[C@](N)(C(=O)NC3CC3)C2)ccc(F)c1CN1CC(F)C1 [Example 53] ?
Result: 50 to 100 nM

====

- System: H3K4me3 in MV4-11 cells
- assay: MV4-11 H3K4me3 Cellular ELISA Assay
- Format: cell-based
- experimental-context: Homo sapiens, MV4-11, 48 h
- Protocol: MV4-11 H3K4me3 Cellular ELISA Assay […] 200 nL compounds dissolved in DMSO were serially diluted at 1:3 ratio for 12 points starting from 10 mM and dispensed into each wells of cell culture plates (PDL-coated ViewPlate-384 Black, FTC, PerkinElmer, #6007710). […] The abundance of H3K4me3 and total H3 were measured by ECL substrates chemiluminescence (Pierce, #34080) on a plate reader (PerkinElmer EnVison 2104 Mutilable Reader). […]
This listing pairs compounds with measured IC50.

The examples below pair each entry with its known result.
CCOC(=O)[C@@]1(N)CCN(c2cc(Cl)cc(Br)c2Cn2cnc3c(N)ncnc32)C1
< 1900 nM
Nc1ncnc2c1ncn2Cc1c(-c2ccc3c(c2)CCO3)cc(Cl)cc1N1CC[C@](N)(C(=O)NC2CC2)C1
> 3000 nM
Nc1ncnc2c1ncn2Cc1c(-c2cccc3c2CCCC3)cc(Cl)cc1N1CC[C@](N)(C(=O)NC2CC2)C1
1900 to 3000 nM

Task: Which IC50 value belongs to Nc1ncnc2c1ncn2Cc1c(N2CC[C@](N)(C(=O)NC3CC3)C2)ccc(Cl)c1C1CC1 (stereo in doubt) ?
Result: > 3000 nM

Task: // IC50 lookup, key: Nc1ncnc2c1ncn2Cc1c(N2CC[C@](N)(C(=O)N[C@H]3C[C@@H]3c3ccccc3)C2)ccc(F)c1CN1CCOCC1
Result: < 1900 nM

Task: Report IC50 for Nc1ncnc2c1ncn2Cc1c(N2CC[C@](N)(c3nnn[nH]3)C2)ccc(Cl)c1I please.
Result: < 1900 nM

Task: Which IC50 value belongs to Nc1ncnc2c1ncn2Cc1c(Br)cc2c(c1N1CCC(N)(C(=O)NC3CC3)C1)CCO2 (centres unmarked) ?
Result: > 3000 nM

Task: Endpoint output: IC50 of CN(C)Cc1c(F)cc(Cl)c(N2CC[C@](N)(C(=O)NC3CC3)C2)c1Cn1cnc2c(N)ncnc21 . Value?
Result: > 3000 nM

Task: Consider the compound shown here: Nc1ncnc2c1ncn2Cc1c(N2CC[C@](N)(C(=O)NC3CC3)C2)ccc(F)c1CN1CCC(F)(F)C1 What is its recorded IC50?
Result: < 1900 nM

Task: Value lookup for IC50; key = Nc1ncnc2c1ncn2Cc1c(N2CC[C@](N)(C(=O)NC3CC3)C2)ccc(C(F)(F)F)c1Br
Result: < 1900 nM

Task: Which IC50 reading was recorded for the compound Nc1ncnc2c1ncn2Cc1c(N2CC[C@](N)(C(=O)NC3CC3)C2)ccc(F)c1CN1CC[C@@H](F)C1 ?
Result: < 1900 nM

Task: May I ask what IC50 has been recorded for C[C@H]1CN(C(=O)[C@@]2(N)CCN(c3ccc(F)c(C(F)(F)F)c3Cn3cnc4c(N)ncnc43)C2)CCO1 ?
Result: < 1900 nM

Task: Can you share its IC50? I mean this compound: CN(Cc1c(F)ccc(N2CC[C@](N)(C(=O)NC3CC3)C2)c1Cn1cnc2c(N)ncnc21)C1CC1
Result: < 1900 nM

Task: Look up IC50 for this compound: Nc1ncnc2c1ncn2Cc1c(N2CC[C@](N)(CCc3ccccn3)C2)ccc(F)c1C(F)(F)F
Result: > 3000 nM

Task: What does the data say about its IC50? Entry: CC(C)(C#N)CNC(=O)[C@@]1(N)CCN(c2ccc(F)c(C(F)(F)F)c2Cn2cnc3c(N)ncnc32)C1
Result: < 1900 nM

Task: # query: IC50 of entry Nc1ncnc2c1ncn2Cc1c(-c2cccc(C3CCCCC3)c2)cc(Cl)cc1N1CC[C@](N)(c2nn[nH]n2)C1
Result: < 1900 nM

Task: Entry Nc1ncnc2c1ncn2Cc1c(N2CC[C@](N)(C(=O)NCc3cccnc3O)C2)ccc(F)c1C(F)(F)F : reported IC50 = ?
Result: < 1900 nM
